# target-under-test: Neuronal acetylcholine receptor; alpha3/beta4 (Homo sapiens, UniProt P30926+P32297)
# Sequence (P30926 whole entry): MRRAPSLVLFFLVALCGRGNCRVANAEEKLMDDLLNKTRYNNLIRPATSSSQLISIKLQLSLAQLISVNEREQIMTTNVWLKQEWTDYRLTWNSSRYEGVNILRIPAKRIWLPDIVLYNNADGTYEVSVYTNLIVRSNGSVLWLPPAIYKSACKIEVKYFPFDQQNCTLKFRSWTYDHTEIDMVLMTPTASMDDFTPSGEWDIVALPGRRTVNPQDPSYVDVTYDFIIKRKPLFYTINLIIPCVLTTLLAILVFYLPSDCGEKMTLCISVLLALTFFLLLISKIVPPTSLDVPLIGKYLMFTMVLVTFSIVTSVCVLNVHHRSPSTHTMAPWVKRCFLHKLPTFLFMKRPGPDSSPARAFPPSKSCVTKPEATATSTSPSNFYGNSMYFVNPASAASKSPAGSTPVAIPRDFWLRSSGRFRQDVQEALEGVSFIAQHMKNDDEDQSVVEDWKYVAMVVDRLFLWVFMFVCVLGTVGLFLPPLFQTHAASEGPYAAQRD
# Sequence (P32297 whole entry): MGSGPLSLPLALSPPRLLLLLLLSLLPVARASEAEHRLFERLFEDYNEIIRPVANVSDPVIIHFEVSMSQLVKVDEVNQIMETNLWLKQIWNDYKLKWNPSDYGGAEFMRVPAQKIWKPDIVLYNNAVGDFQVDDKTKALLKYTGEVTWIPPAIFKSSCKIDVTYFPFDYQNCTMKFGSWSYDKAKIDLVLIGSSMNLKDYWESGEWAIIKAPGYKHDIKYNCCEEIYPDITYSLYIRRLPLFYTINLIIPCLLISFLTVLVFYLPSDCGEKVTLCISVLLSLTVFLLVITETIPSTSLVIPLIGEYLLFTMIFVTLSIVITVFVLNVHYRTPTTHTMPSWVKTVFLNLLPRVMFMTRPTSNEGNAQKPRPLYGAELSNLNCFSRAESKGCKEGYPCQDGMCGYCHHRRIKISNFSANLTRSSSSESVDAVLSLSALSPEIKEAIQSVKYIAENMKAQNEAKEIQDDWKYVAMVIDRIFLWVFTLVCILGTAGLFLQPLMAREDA
# protocol-details: Displacement of [3H]-Epibatidine from alpha3beta4 nAChR (unknown origin) expressed in SH-EP1 cell membrane assessed as inhibition constant by beta counter method
pKi: −log10 of the molar value.
measured-endpoint: pKi

1) CC[N+](CC)(CC)CCOc1ccc(-c2cccc3ccccc23)cc1 | 7.01

meta.source: ChEMBL document CHEMBL5316267
